- TESTED SYSTEM: Rat Kidney Medullary V2 Receptors (Rattus norvegicus)
- Construct: Medullary tissues from rat kidneys are dissected out; from tissue; host or cells: rat kidney medulla membranes
- Sequence (Q00788 whole entry): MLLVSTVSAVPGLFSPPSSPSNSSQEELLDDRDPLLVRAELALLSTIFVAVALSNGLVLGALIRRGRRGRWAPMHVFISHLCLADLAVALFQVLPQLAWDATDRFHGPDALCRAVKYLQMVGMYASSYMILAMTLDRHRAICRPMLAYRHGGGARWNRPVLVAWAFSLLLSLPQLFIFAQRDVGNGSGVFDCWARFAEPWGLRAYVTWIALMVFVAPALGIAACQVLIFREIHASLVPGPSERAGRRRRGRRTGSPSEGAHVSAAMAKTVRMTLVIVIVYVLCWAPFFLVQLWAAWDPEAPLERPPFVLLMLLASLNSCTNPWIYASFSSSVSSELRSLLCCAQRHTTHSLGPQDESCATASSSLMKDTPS
- PROTOCOL DETAILS: Binding Assay to Rat Kidney Medullary V2 Receptors
- RUN CONDITIONS: 10 μM, rat
ENDPOINT LABEL: inhibition at 10 µM (%)

>>> measured_value("O=C(Nc1ccc(C(=O)N2Cc3ccc(C(=O)C(F)(F)F)n3Cc3ccccc32)cc1)c1ccccc1C(F)(F)F")
23
>>> measured_value("O=C(CCl)Nc1ccc(C(=O)N2Cc3cccn3Cc3ccccc32)cc1")
82
>>> measured_value("Cc1ccccc1C(=O)Nc1ccc(C(=O)N2CCc3nncn3-c3ccccc32)cc1")
77
>>> measured_value("O=C(Nc1ccc(C(=O)N2Cc3cccn3Cc3ccccc32)cc1)c1sc2ccccc2c1Cl")
71
>>> measured_value("Cc1ccccc1C(=O)Nc1c(C)cc(C(=O)N2Cc3cccn3Cc3ccccc32)cc1C")
22
>>> measured_value("O=C(CN1CCOCC1)N(Cc1ccccc1Cl)c1ccc(C(=O)N2Cc3cccn3Cc3ccccc32)cc1")
64
>>> measured_value("O=C(c1ccc(NS(=O)(=O)c2cc(Cl)ccc2Cl)cc1)N1Cc2cccn2Cc2ccccc21")
68
>>> measured_value("O=C(Nc1ccc(C(=O)N2Cc3ccc(C(=O)C(Cl)(Cl)Cl)n3Cc3ccccc32)cc1)c1ccc(Cl)cc1Cl")
93
>>> measured_value("O=C(Nc1ccc(C(=O)N2Cc3ccc(C(=O)C(Cl)(Cl)Cl)n3Cc3ccccc32)cc1)c1ccccc1C(F)(F)F")
97
>>> measured_value("COC(=O)c1ccc(C(=O)Nc2ccc(C(=O)N3Cc4cccn4Cc4ccccc43)cc2)cc1")
82
>>> measured_value("CCOC(=O)c1ccc2c(c1)N(C(=O)c1ccc(NC(=O)c3ccccc3C)cc1)Cc1cccn1C2")
89
>>> measured_value("Cc1cc(C(=O)N2Cc3cccn3Cc3ccccc32)cc(C)c1NC(=O)c1ccc(Cl)cc1Cl")
56
>>> measured_value("O=C(c1ccc(NS(=O)(=O)c2ccccc2Cl)cc1)N1Cc2cccn2Cc2ccccc21")
87
>>> measured_value("Cc1c(CC(=O)Nc2ccc(C(=O)N3Cc4cccn4Cc4ccccc43)cc2)sc2ccccc12")
80
>>> measured_value("Cc1ccccc1C(=O)Nc1ccc(C(=O)N2Cc3ccc(C(=O)C(F)(F)F)n3Cc3ccccc32)c(Cl)c1")
93
>>> measured_value("O=C(CN1CCOCC1)Nc1ccc(C(=O)N2Cc3cccn3Cc3ccccc32)cc1")
81
>>> measured_value("O=C(c1ccc(NP(=O)(c2ccccc2)c2ccccc2)cc1)N1Cc2cccn2Cc2ccccc21")
83

###

- Test system: Vasopressin V1
- PROTOCOL DETAILS: Vasopressin V1 Antagonist Activity in Conscious Rats (vasopressin vasopressor response)
- Type: in vivo, rat
- RUN CONDITIONS: 10 mg/kg i.v., VAS 0.01 i.u./kg, 180 min, SHR
ENDPOINT LABEL: % Inhibition

>>> measured_value("Cc1ccccc1C(=O)Nc1ccc(C(=O)N2Cc3cccn3-c3ccccc32)cc1 [Example 14]")
"6%"
>>> measured_value("O=C(Nc1ccc(C(=O)N2Cc3cccn3Cc3ccccc32)cc1)c1cccc(F)c1F [Example 1]")
"13%"
>>> measured_value("Cc1ccsc1C(=O)Nc1ccc(C(=O)N2Cc3cccn3Cc3ccccc32)cc1 [Example 5]")
"62%"
>>> measured_value("Cc1ccccc1C(=O)N(C)c1ccc(C(=O)N2Cc3cccn3Cc3ccccc32)cc1 [Example 384]")
"53%"
>>> measured_value("Cc1ccccc1C(=O)Nc1ccc(C(=O)N2Cc3ccc(Cl)n3Cc3ccccc32)cc1 [Example 41]")
"39%"
>>> measured_value("COc1cc(Cl)ccc1C(=O)Nc1ccc(C(=O)N2Cc3cccn3Cc3ccccc32)cc1 [Example 89]")
"38%"
>>> measured_value("O=C(Nc1ccc(C(=O)N2Cc3cccn3Cc3ccccc32)cc1)c1ccccc1F [Example 8]")
"62%"
>>> measured_value("Cc1ccccc1NC(=O)Nc1ccc(C(=O)N2Cc3cccn3Cc3ccccc32)cc1 [Example 116]")
"38%"
>>> measured_value("O=C(Nc1ccc(C(=O)N2Cc3cccn3Cc3ccccc32)cc1)C1CCCCC1 [Example 358]")
"52%"
>>> measured_value("O=C(Nc1ccc(C(=O)N2Cc3cccn3Cc3ccccc32)cc1)c1ccc(Cl)cc1Cl [Example 6]")
"44%"
>>> measured_value("Cc1cc(C(=O)N2Cc3cccn3Cc3ccccc32)ccc1N [Example 95]")
"52%"
>>> measured_value("Cc1ccccc1CC(=O)Nc1ccc(C(=O)N2Cc3cccn3Cc3ccccc32)cc1 [Example 93]")
"73%"
>>> measured_value("Cc1cc(C(=O)N2Cc3cccn3Cc3ccccc32)ccc1NC(=O)c1ccc(Cl)cc1Cl [Example 99]")
"68%"
>>> measured_value("COc1ccccc1C(=O)Nc1ccc(C(=O)N2Cc3cccn3Cc3ccccc32)cc1 [Example 2]")
"55%"
>>> measured_value("O=C(Nc1ccc(C(=O)N2Cc3cccn3Cc3ccccc32)cc1)c1ccccc1Cl [Example 7]")
"63%"
>>> measured_value("O=C(Cc1ccccc1F)Nc1ccc(C(=O)N2Cc3cccn3Cc3ccccc32)cc1 [Example 357]")
"77%"
>>> measured_value("CSc1ccccc1C(=O)Nc1ccc(C(=O)N2Cc3cccn3Cc3ccccc32)cc1 [Example 85]")
"42%"
>>> measured_value("CCOc1ccccc1C(=O)Nc1ccc(C(=O)N2Cc3cccn3Cc3ccccc32)cc1 [Example 84]")
"47%"
>>> measured_value("O=C(Nc1ccc(C(=O)N2Cc3cccn3Cc3ccccc32)cc1)c1ccccc1C(F)(F)F [Example 91]")
"55%"

###

- TESTED SYSTEM: Rat Hepatic V1 Receptors (Rattus norvegicus, UniProt P30560)
- Construct: Rat liver plasma membranes expressing the vasopressin V1 receptor subtypes; from tissue; host or cells: rat liver plasma membranes
- Sequence (P30560 whole entry): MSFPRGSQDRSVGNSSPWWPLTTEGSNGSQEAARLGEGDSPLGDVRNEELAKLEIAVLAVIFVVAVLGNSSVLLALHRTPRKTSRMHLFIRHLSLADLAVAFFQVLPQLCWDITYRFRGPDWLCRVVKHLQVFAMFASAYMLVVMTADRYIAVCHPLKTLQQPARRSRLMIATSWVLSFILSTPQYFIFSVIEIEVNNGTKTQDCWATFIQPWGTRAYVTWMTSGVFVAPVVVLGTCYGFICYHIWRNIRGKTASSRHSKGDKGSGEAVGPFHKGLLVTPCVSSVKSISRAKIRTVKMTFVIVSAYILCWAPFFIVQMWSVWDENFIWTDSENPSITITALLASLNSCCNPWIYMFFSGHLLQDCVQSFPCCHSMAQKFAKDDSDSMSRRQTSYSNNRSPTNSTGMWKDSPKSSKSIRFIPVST
- PROTOCOL DETAILS: Binding Assay to Rat Hepatic V1 Receptors
- RUN CONDITIONS: rat liver membranes; read-out: V1 IC50
We begin with a simple list: items and their reported IC50.
ENDPOINT LABEL: IC50 (nM)

>>> measured_value("CC(=O)c1ccc2n1Cc1ccccc1N(C(=O)c1ccc(NC(=O)c3ccc(Cl)cc3Cl)cc1)C2 [Example 670]")
1100
>>> measured_value("O=C(Nc1ccc(C(=O)N2Cc3cccn3Cc3ccccc32)cc1)c1cccc(Cl)c1Cl [Example 468]")
27
>>> measured_value("O=C(Nc1ccc(C(=O)N2Cc3cccn3Cc3ccccc32)cc1)c1ccccc1F [Example 8]")
56
>>> measured_value("O=C(Nc1ccc(C(=O)N2Cc3cccn3Cc3ccccc32)cc1)C1CCCCC1 [Example 358]")
11

###

- Test system: Vasopressin V1
- PROTOCOL DETAILS: Vasopressin V1 Antagonist Activity in Conscious Rats (vasopressin vasopressor response)
- Format: in vivo, rat
- RUN CONDITIONS: 10 mg/kg i.v., VAS 0.02 i.u./kg, 60 min, SHR
- Procedure: Vasopressin V1 Antagonist Activity in Conscious Rats Conscious rats are restrained in a supine position with elastic tape. The area at the base of the tail is locally anesthetized by subcutaneous infiltration with 2% procaine (0.2 ml). […] The animals are placed in plastic restraining cages in an upright position. The cannula is attached to a Statham P23Db pressure transducer and pulsatile blood pressure is recorded. […]
Mark each entry satisfied if its % Inhibition sits below 80%, and not satisfied for all others.

>>> classification("Cc1ccccc1CC(=O)Nc1ccc(C(=O)N2Cc3cccn3Cc3ccccc32)cc1")
"not satisfied"
>>> classification("O=C(Nc1ccc(C(=O)N2Cc3cccn3Cc3ccccc32)cc1)c1ccccc1C(F)(F)F")
"not satisfied"
>>> classification("O=C(Nc1ccc(C(=O)N2Cc3cccn3Cc3ccccc32)cc1)c1cccc(F)c1F")
"satisfied"
>>> classification("O=C(Nc1ccc(C(=O)N2Cc3cccn3Cc3ccccc32)cc1)C1CCCCC1")
"satisfied"
>>> classification("Cc1ccccc1C(=O)N(C)c1ccc(C(=O)N2Cc3cccn3Cc3ccccc32)cc1")
"satisfied"
>>> classification("Cc1cc(C(=O)N2Cc3cccn3Cc3ccccc32)ccc1NC(=O)c1ccc(Cl)cc1Cl")
"satisfied"
>>> classification("Cc1ccccc1C(=O)Nc1ccc(C(=O)N2Cc3ccc(Cl)n3Cc3ccccc32)cc1")
"satisfied"

###

Attribute: inhibition at 10 µM
- TESTED SYSTEM: oxytocin receptors (Rattus norvegicus, UniProt P70536)
- Construct: The uteri are dissected out, cleaned of fat and connective tissues; from tissue; host or cells: uterus of DES-treated female Sprague-Dawley rats
- Sequence (P70536 whole entry): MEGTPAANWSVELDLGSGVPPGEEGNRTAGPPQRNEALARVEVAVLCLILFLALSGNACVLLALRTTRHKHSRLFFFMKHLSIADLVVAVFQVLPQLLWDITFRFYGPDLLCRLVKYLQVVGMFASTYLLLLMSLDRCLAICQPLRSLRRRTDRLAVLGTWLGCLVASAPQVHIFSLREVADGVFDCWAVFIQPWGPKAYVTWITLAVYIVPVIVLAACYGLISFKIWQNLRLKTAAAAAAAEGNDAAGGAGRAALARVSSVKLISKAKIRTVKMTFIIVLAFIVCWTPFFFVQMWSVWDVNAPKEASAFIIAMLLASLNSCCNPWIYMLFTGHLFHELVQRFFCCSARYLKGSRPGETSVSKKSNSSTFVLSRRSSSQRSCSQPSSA
- PROTOCOL DETAILS: Oxytocin Receptor Binding
- RUN CONDITIONS: dose 10 μM, [3H]oxytocin
ENDPOINT LABEL: inhibition at 10 µM (%)

>>> measured_value("Cc1cccc(NC(=O)c2ccc(C(=O)N3Cc4cccn4Cc4ccccc43)cc2)c1C")
86
>>> measured_value("O=C(Nc1ccc(C(=O)N2Cc3cccn3-c3ccccc32)cc1)c1ccc(Cl)cc1Cl")
31
>>> measured_value("O=C(Nc1ccc(C(=O)N2Cc3ccc(Cn4ccnc4)n3Cc3ccccc32)cc1)c1ccc(Cl)cc1Cl")
96
>>> measured_value("COc1cc(C(=O)N2Cc3cccn3Cc3ccccc32)ccc1NC(=O)c1cccc(F)c1C")
76
>>> measured_value("O=C(Nc1ccc(C(=O)N2Cc3ccc(CO)n3Cc3ccccc32)cc1)c1ccc(Cl)cc1Cl")
99
>>> measured_value("COc1cc(C(=O)N2Cc3cccn3Cc3ccccc32)ccc1N")
77
>>> measured_value("CC(=O)OC(C(=O)Nc1ccc(C(=O)N2Cc3cccn3Cc3ccccc32)cc1)c1ccccc1 (centres unmarked)")
56
>>> measured_value("O=C(Nc1ccc(C(=O)N2Cc3cccn3Cc3ccccc32)cc1)c1cc([N+](=O)[O-])ccc1Cl")
98
